# target-entity: SARS-CoV-2 spike protein receptor binding domain (RBD), wild type (SARS-CoV-2, UniProt P0DTC2 319-539)
# test: ELISA, RBD protein coated on plate, antibody titrated
Reported EC50 values for a set of binders
assay-metric: EC50 (ng/mL)

binder="C514 (antibody, V domains shown) VH: EVQLVESGGGLVQPGGSLRLSCAASEFIVTRNYMSWVRQAPGKGLEWVSLIYPGGSTFYADSVKGRFTISRDNSKNTLFLHMNSLRAEDTAVYYCARDLAGRLDYWGQGTLVTVSS VL: DIQMTQSPSSLSASVGDRVTITCQASQDINNFLNWYQQKPGKAPKLLIYDASNLETGVPSRFSGSGSGTDFTFTISSLQPEDIAIYYCQQYDSLSRLTFGGGTKVEIK" number=0.82
binder="C529 (antibody, V domains shown) VH: EVQLLESGGGLVQPGGSLRLSCAASGFTFNNYAMNWVRQAPGRGLEWVSGISGSGANTYYADSVKGRFTISRDNPKNTLSLQMNSLRAEDTALYYCAKVLSPTYYDSWSGPDAFDFWGQGTMVTVSS VL: DIQMTQSPSTLSASVGDRVTITCRASQTISPWLAWYQQKPGKAPNLLIYKASSLESGVPSRFSGSGSGTEFTLTISSLQPDDFATYYCQQYNSYSSWTFGQGTKVEIK" number=8
binder="C503 (antibody, V domains shown) VH: QVQLQESGPGLVQPSGTLSLSCTVTGGSISSNNWWSWVRQSPVKGLEWIGEIYHNGNINYNPSLKSRVTMSIDKSKNHFSLKLSSVTAADTAVYYCARGDVLDWFDPWGQGTLVTVS VL: QSALTQPASVSGSPGQSITFSCTGTSSDVGAYNYISWYQQHPGKAPKLMIYDVNNRPSGVSRRFSGSKSGNTASLTISGLQSEDEADYFCSSYAGNSTVRFGGGTKLTVL" number=6.55
